test system: Pichia kudriavzevii; experiment: Antifungal activity against Candida krusei after 24 hrs by broth microdilution method; type: functional, organism-based
Activity calls are given as the source filed them. The calls are words filed in the database; no cut-off is given here. Positions of bridges follow the written chain, without caps; N, C: chain ends. Non-standard residues stand in square brackets, D forms with d. Residues, ends and D or L forms follow the SMILES beside them. *: point of attachment. pTerphenylCO(4''-OnC5H11) = CCCCCOc1ccc(-c2ccc(-c3ccc(C(=O)*)cc3)cc2)cc1; hTyr = N[C@@H](CCc1ccc(O)cc1)C(=O)O; Palmitoyl = CCCCCCCCCCCCCCCC(=O)*; Hyp = O=C(O)[C@@H]1C[C@@H](O)CN1; Orn = NCCC[C@H](N)C(=O)O

{"Compound": "CCCCCOc1ccc(-c2ccc(-c3ccc(C(=O)N[C@H]4CCCCNC(=O)[C@@H]5C[C@@H](O)CN5C(=O)[C@H](CCCN)NC(=O)[C@H](CCc5ccc(O)cc5)NC(=O)[C@@H]5C[C@@H](O)CN5C(=O)[C@H]([C@@H](C)O)NC4=O)cc3)cc2)cc1 ({pTerphenylCO(4''-OnC5H11)}-KT[Hyp][hTyr][Orn][Hyp]; lactam 1-C)", "Activity": "Active"}
{"Compound": "CCCCCCCCCCCCCCCC(=O)N[C@H]1CCCNC(=O)[C@@H]2C[C@@H](O)CN2C(=O)[C@H]([C@@H](C)O)NC(=O)[C@H](CCc2ccc(O)cc2)NC(=O)[C@@H]2C[C@@H](O)CN2C(=O)[C@H]([C@@H](C)O)NC1=O (Palmitoyl-[Orn]T[Hyp][hTyr]T[Hyp]; lactam 1-C)", "Activity": "Active"}
{"Compound": "CCCCCCCCCCCCCCCC(=O)N[C@H]1CCCNC(=O)[C@@H]2C[C@@H](O)CN2C(=O)[C@H](CCCN)NC(=O)[C@H](CCc2ccc(O)cc2)NC(=O)[C@@H]2C[C@@H](O)CN2C(=O)[C@H]([C@@H](C)O)NC1=O (Palmitoyl-[Orn]T[Hyp][hTyr][Orn][Hyp]; lactam 1-C)", "Activity": "Active"}
{"Compound": "CCCCCOc1ccc(-c2ccc(-c3ccc(C(=O)N[C@H]4CCCNC(=O)[C@@H]5C[C@@H](O)CN5C(=O)[C@H](CCCN)NC(=O)[C@H](CCc5ccc(O)cc5)NC(=O)[C@@H]5C[C@@H](O)CN5C(=O)[C@H]([C@@H](C)O)NC4=O)cc3)cc2)cc1 ({pTerphenylCO(4''-OnC5H11)}-[Orn]T[Hyp][hTyr][Orn][Hyp]; lactam 1-C)", "Activity": "Active"}
{"Compound": "CCCCCOc1ccc(-c2ccc(-c3ccc(C(=O)N[C@H]4CCCNC(=O)[C@@H]5C[C@@H](O)CN5C(=O)[C@H]([C@@H](C)O)NC(=O)[C@H](CCc5ccc(O)cc5)NC(=O)[C@@H]5C[C@@H](O)CN5C(=O)[C@H]([C@@H](C)O)NC4=O)cc3)cc2)cc1 ({pTerphenylCO(4''-OnC5H11)}-[Orn]T[Hyp][hTyr]T[Hyp]; lactam 1-C)", "Activity": "Active"}

###

Entries and their MIC values follow.
system: Candida albicans; experiment: Antifungal activity against Candida albicans CBS 9975 after 24 hrs by broth microdilution method; format: functional; conditions: CBS 9975, 24 h
Positions of bridges follow the written chain, without caps; N, C: chain ends. Non-standard residues stand in square brackets, D forms with d. Residues, ends and D or L forms follow the SMILES beside them. *: point of attachment. pTerphenylCO(4''-OnC5H11) = CCCCCOc1ccc(-c2ccc(-c3ccc(C(=O)*)cc3)cc2)cc1; hTyr = N[C@@H](CCc1ccc(O)cc1)C(=O)O; Palmitoyl = CCCCCCCCCCCCCCCC(=O)*; Hyp = O=C(O)[C@@H]1C[C@@H](O)CN1; AllylGly = C=CC[C@H](N)C(=O)O; Orn = NCCC[C@H](N)C(=O)O; NHNH2 = NN*
Value Kind: MIC

{"Compound": "CCCCCCCCCCCCCCCC(=O)N[C@H]1CSSC[C@@H](C(N)=O)NC(=O)[C@@H]2C[C@@H](O)CN2C(=O)[C@H](CCCN)NC(=O)[C@H](CCc2ccc(O)cc2)NC(=O)[C@@H]2C[C@@H](O)CN2C(=O)[C@H]([C@@H](C)O)NC1=O (Palmitoyl-CT[Hyp][hTyr][Orn][Hyp]C-NH2; disulfide 1-7)", "Target Under Test": "Candida albicans", "Result": "> 100 µg/mL"}
{"Compound": "CC[C@H](C)C[C@H](C)CCCCCCCCC(=O)N[C@H]1C[C@@H](O)[C@@H](NCCN)NC(=O)[C@@H]2[C@@H](O)CCN2C(=O)[C@H]([C@H](O)CCN)NC(=O)[C@H]([C@H](O)[C@@H](O)c2ccc(O)cc2)NC(=O)[C@@H]2C[C@@H](O)CN2C(=O)[C@H]([C@@H](C)O)NC1=O", "Target Under Test": "Candida albicans", "Result": "0.025 µg/mL"}
{"Compound": "CCCCCOc1ccc(-c2ccc(-c3ccc(C(=O)N[C@H]4C/C=C\\C[C@@H](C(=O)OC)NC(=O)[C@@H]5C[C@@H](O)CN5C(=O)[C@H](CCCN)NC(=O)[C@H](CCc5ccc(O)cc5)NC(=O)[C@@H]5C[C@@H](O)CN5C(=O)[C@H]([C@@H](C)O)NC4=O)cc3)cc2)cc1 ({pTerphenylCO(4''-OnC5H11)}-[AllylGly]T[Hyp][hTyr][Orn][Hyp][AllylGly]-OMe; staple (Z) 1-7)", "Target Under Test": "Candida albicans", "Result": "> 100 µg/mL"}
{"Compound": "CCCCCOc1ccc(-c2ccc(-c3ccc(C(=O)N[C@H]4C/C=C\\C[C@@H](C(=O)O)NC(=O)[C@@H]5C[C@@H](O)CN5C(=O)[C@H](CCCN)NC(=O)[C@H](CCc5ccc(O)cc5)NC(=O)[C@@H]5C[C@@H](O)CN5C(=O)[C@H]([C@@H](C)O)NC4=O)cc3)cc2)cc1 ({pTerphenylCO(4''-OnC5H11)}-[AllylGly]T[Hyp][hTyr][Orn][Hyp][AllylGly]-OH; staple (Z) 1-7)", "Target Under Test": "Candida albicans", "Result": "> 100 µg/mL"}
{"Compound": "CCCCCCCCCCCCCCCC(=O)N[C@H]1CCCC[C@@H](C(=O)O)NC(=O)[C@@H]2C[C@@H](O)CN2C(=O)[C@H](CCCN)NC(=O)[C@H](CCc2ccc(O)cc2)NC(=O)[C@@H]2C[C@@H](O)CN2C(=O)[C@H]([C@@H](C)O)NC1=O", "Target Under Test": "Candida albicans", "Result": "> 100 µg/mL"}
{"Compound": "CCCCCOc1ccc(-c2ccc(-c3ccc(C(=O)N[C@H]4C/C=C\\C[C@@H](C(=O)NN)NC(=O)[C@@H]5C[C@@H](O)CN5C(=O)[C@H](CCCN)NC(=O)[C@H](CCc5ccc(O)cc5)NC(=O)[C@@H]5C[C@@H](O)CN5C(=O)[C@H]([C@@H](C)O)NC4=O)cc3)cc2)cc1 ({pTerphenylCO(4''-OnC5H11)}-[AllylGly]T[Hyp][hTyr][Orn][Hyp][AllylGly]-NHNH2; staple (Z) 1-7)", "Target Under Test": "Candida albicans", "Result": "> 100 µg/mL"}
